The following molecules are shown together with reported LC95 values.
System: Trichogramma nubilale
protocol-description: Contact toxicity against Trichogramma nubilale assessed as mortality after 24 hr by modified slight dry film method
Format: functional
Provide the reading as a plain figure in mgAi/L.

Some solved cases for reference:
O=C(NC(=O)c1c(F)cccc1F)Nc1cc(Cl)c(Oc2ncc(C(F)(F)F)cc2Cl)c(Cl)c1    111205
CC1(C)C(C=C(Cl)Cl)C1C(=O)OC(C#N)c1cccc(Oc2ccccc2)c1 (centres undefined)    176.8
O=[N+]([O-])/N=C1\NCCN1Cc1cnc(Cl)s1    636.5

// next item, LC95 requested
In: # return recorded LC95 for entry CNC(=O)Oc1cc(C)cc(C(C)C)c1
Out: 1.91
